test system: Wolbachia pipientis; assay: Anti-Wolbachia Cell-Based Screen; format: functional; parameters: scale not given: in the data most compounds retested in dose-response had high values; details: 5 µM
Out of some 48,000 compounds screened, about 13,000 (27%) showed an effect of 50% or more. Some of the results follow.
quantityKind: Percent Effect (%)
Number in %, nothing else.

Exercise: Provide the documented Percent Effect with Wolbachia pipientis as the system for Cc1nc(CN2CCN(c3ccc4nncn4n3)C(C)C2)oc1C (stereo not drawn)
Solution: 98.31

Exercise: Provide the documented Percent Effect with Wolbachia pipientis as the system for `Cc1cc(C(=O)N2CCOC[C@H](Oc3cnccn3)C2)c(C(F)(F)F)o1`
Solution: 1.166

Exercise: Provide the documented Percent Effect with Wolbachia pipientis as the system for `CCOCc1ncn2c1CN(C(=O)Nc1ccc(CC)cc1)CC2`
Solution: 108

Exercise: Provide the documented Percent Effect with Wolbachia pipientis as the system for Cc1ncc(CN2CCN(c3ccc4nncn4n3)C(C)C2)s1 (stereo not drawn)
Solution: 100.4

Exercise: Provide the documented Percent Effect with Wolbachia pipientis as the system for `COc1cccc(S(=O)(=O)N2CCn3cnc(COCC4CC4)c3C2)c1`
Solution: -6.989

Exercise: Provide the documented Percent Effect with Wolbachia pipientis as the system for `COCCN1C[C@H]2CCN(c3ncccn3)CC[C@H]2S1(=O)=O`
Solution: -6.135

Exercise: Provide the documented Percent Effect with Wolbachia pipientis as the system for `CC(C)CN1CCC(C(=O)NCCNC(=O)c2ccccc2)CC1`
Solution: 10.43

Exercise: Provide the documented Percent Effect with Wolbachia pipientis as the system for `Cc1ccccc1S(=O)(=O)N1CCc2c(ncnc2N(C)C)C1`
Solution: -0.5839

Exercise: Provide the documented Percent Effect with Wolbachia pipientis as the system for Cc1ncc(CN2CCOC(CN(C)c3cccnn3)C2)s1 (stereo not drawn)
Solution: -7.672

Exercise: Provide the documented Percent Effect with Wolbachia pipientis as the system for CCNC(=O)N1CCC(NC(=O)NCCc2cc(F)cc(F)c2)C1 (stereo not drawn)
Solution: -1.465

====

tested on: Wolbachia pipientis; test: Anti-Wolbachia Cell-Based Screen; type: functional; set-up: scale not given: in the data most compounds retested in dose-response had high values; details: 5 µM
Screen size: about 48,000 compounds; about 13,000 (27%) showed an effect of 50% or more. Some of the results follow.
Here the recorded Percent Effect is given for each entry.
Number in %, nothing else.

>  <molecule>
CNC(=O)C1Cc2ccccc2CN1CCC#N (stereo not drawn)

>  <assaySystem>
Wolbachia pipientis

>  <Percent Effect / %>
-3.828

$$$$
>  <molecule>
CNC(=O)C1CN(C)CCN1c1nc(C)cc(C)n1 (stereo not drawn)

>  <assaySystem>
Wolbachia pipientis

>  <Percent Effect / %>
94.41

$$$$
>  <molecule>
COCCN(C)C[C@@H]1CCC[C@@H]2CN(c3cc(OC)ncn3)C[C@@H]21.O=C(O)C(F)(F)F

>  <assaySystem>
Wolbachia pipientis

>  <Percent Effect / %>
-6.847

$$$$
>  <molecule>
Cc1nc(CCN2CCC(Oc3ccccc3F)CC2)cs1

>  <assaySystem>
Wolbachia pipientis

>  <Percent Effect / %>
-0.6309

$$$$
>  <molecule>
CNC(=O)C1CCCN1c1nc(C)c2ccccc2n1 (stereo not drawn)

>  <assaySystem>
Wolbachia pipientis

>  <Percent Effect / %>
9.069

$$$$
>  <molecule>
CC(C)Cc1noc(CN2CCN(CCOc3ccc(Cl)cc3)CC2)n1

>  <assaySystem>
Wolbachia pipientis

>  <Percent Effect / %>
-9.815

$$$$
>  <molecule>
Cc1csc2c(C3CCN(CCCOc4ccccc4)CC3)nc(C)n12

>  <assaySystem>
Wolbachia pipientis

>  <Percent Effect / %>
96.85

$$$$
>  <molecule>
CCC(C)Oc1ccc(CNCCNC(C)=O)cc1OC (stereo not drawn)

>  <assaySystem>
Wolbachia pipientis

>  <Percent Effect / %>
123.2

$$$$

Exercise: Provide the documented Percent Effect with Wolbachia pipientis as the system for `CCC[C@H]1CN(Cc2ccc(N(C)C)nc2)C[C@@H]1NS(=O)(=O)CC`
Solution: 9.48

Exercise: Provide the documented Percent Effect with Wolbachia pipientis as the system for C[C@@H]1CN(c2ccc3c(Cl)ccnc3c2F)CC(C(N)=O)O1 (stereo partly drawn)
Solution: -9.196

Exercise: Provide the documented Percent Effect with Wolbachia pipientis as the system for `Cc1ccc(OCCN2CCC(c3nc(C)n4c(C)csc34)CC2)cc1`
Solution: 140.7

Exercise: Provide the documented Percent Effect with Wolbachia pipientis as the system for `Cc1csc(NC(=O)CN2CCC(c3ccnn3CCO)CC2)n1`
Solution: -8.035

Exercise: Provide the documented Percent Effect with Wolbachia pipientis as the system for CC(C)N1CCC(N2CCN(C3CCC3)CC2CCO)CC1 (stereo not drawn)
Solution: 3.855

Exercise: Provide the documented Percent Effect with Wolbachia pipientis as the system for `NC(=O)C1CCN(CCCNC(=O)Nc2nccs2)CC1`
Solution: 104.9

Exercise: Provide the documented Percent Effect with Wolbachia pipientis as the system for CNC(=O)C1CN(C(C)C)CCN1c1ncccn1 (stereo not drawn)
Solution: 82.95

Exercise: Provide the documented Percent Effect with Wolbachia pipientis as the system for CC(CNS(C)(=O)=O)Oc1cccc(Cl)c1 (stereo not drawn)
Solution: -10.77

Exercise: Provide the documented Percent Effect with Wolbachia pipientis as the system for CN1CCCC1c1ccnc(-c2ccccc2)n1 (stereo not drawn)
Solution: 129.7

Exercise: Provide the documented Percent Effect with Wolbachia pipientis as the system for `C[C@H]1C[C@H]2CN(C(=O)C3=CCCCC3)CC[C@H]2O1`
Solution: -8.819
